# systemTested: T1, ZFP SBS#553 (synthetic)
# T1 chain: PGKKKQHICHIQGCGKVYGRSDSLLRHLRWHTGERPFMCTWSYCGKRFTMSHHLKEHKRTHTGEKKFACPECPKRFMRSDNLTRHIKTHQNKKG
# protocolDetails: EMSA
# testSettings: tags: MBP fusion
property: pKd
Please note pKd is a logarithmic value: minus log10 of concentration in mol/L. Answer with that number alone.

In: Looking for the measured pKd of GAGTGTGTGA (dsDNA) DNA 1: GAGTGTGTGA DNA 2: TCACACACTC , can you help?
Out: 6.90
